assay: Specific activity of purified CHI, absorbance decrease at 384 nm, hesperetin chalcone; assay type: biochemical; details: purified CHI in 50 mM PBS, 100 μM substrate, 25° C. Note: unit not given here.
MEASUREMENT_KIND: Specific activity, Hesperetin chalcone
Give the figure only, with no unit attached.

What measured Specific activity, Hesperetin chalcone goes with CHIera Mut13: Chalcone isomerase variant 13 from Eubacterium ramulus, genetically engineered (protein, listed as Eubacterium ramulus) MADFKFEPMRSLIYVDCVSEDYRPKLQRWIYKVHIPDSISKFEPYVTKYAFYPSFPIPPQGDRFGYARMQLTEHHWLVSPLDPRLEINAIAETFPMDVLVWQGQIPAAAHTDAQIDSDGDADDAARKSNNAEGNPFIFAFLPMWWEKDLKGKGRTIEDGANYRFNMTIGFPEGVDKAEGEKWLFEKVVPILQAAPECTRVLASAVKKDINGCVMDWVLEIWFENQSGWYKVMVDDMKALEKPSWAQQDAFPFLKPYHNVCSAAVADYTPSNNLANYRGYITMR ? 107.1

Given CHI9: Chalcone isomerase from Roseburia sp. OM02-15, access no. WP_118702262.1 (protein, Roseburia sp. OM02-15) GEITYQPLRSLIYVDCVKEEYRHKLQHWLYYYHAPESIAKFEPWVTKYAFYNALPTPPQGERFGTYRMQLTEHYWMVNPMSQESLVNSLNEYFPIDAMIWQGTLPENAKEDGFMADGEAARASGGDNGCPPFIFAFLPIFWEQDLKGAGRTMVDGPNYRWQFLVSYPEGHKEDGDQWMMNEVLPAFAAMPEVTRMMTSKVKKEINNCHMDRCVEMWFDGPEEWYHCAVENAASFKKPEWAEYDNFPYLRPQFQFASLFLTDIATSDNLKQYRGYLPMR , state its recorded Specific activity, Hesperetin chalcone. 43.0
